tested on: 966289-007-R4-J1-PDC complex spheroid viability; test: Anticancer human tumor 966289-007-R4-J1-PDC patient-derived pancreatic adenocarcinoma cell line growth inhibition [GQUAD]; conditions: second compound 0.0316 µM; first compound 3.16 µM; active = viability on the fitted dose curve at most 10% of control; inactive = the rest
Outcomes: true (1) = active, false (0) = inactive

| Compound | Class |
| --- | --- |
| CC(C)(O)C1CCC(Nc2ccc3ncc(-c4cccc(C(F)(F)F)c4)n3n2)CC1 (stereo not drawn) + Cc1[nH]c2ccc(F)cc2c1-c1nc2c3cccnc3c3ncccc3c2[nH]1 | false (0) |
| CC1COCCN1c1cc(-c2ccnn2C)c2ccnc(-c3ccn[nH]3)c2n1 (stereo not drawn) + CN(C)c1ccc(Nc2c3ccc(NC(=O)CCN4CCCC4)cc3nc3cc(NC(=O)CCN4CCCC4)ccc23)cc1 | true (1) |
| C=CC(=O)N1CCN(c2nc(=O)n(-c3c(C)ccnc3C(C)C)c3nc(-c4c(O)cccc4F)c(F)cc23)C(C)C1 (stereo not drawn) + Cc1cnc(CNC(=O)c2c(=O)c3ccc(N4CCCN(C)CC4)nc3n3c2sc2ccccc23)cn1 | false (0) |

* * *

Quick reference: viability, T/C of the listed items.
tested on: 966289-007-R4-J1-PDC complex spheroid viability; experiment: Anticancer human tumor 966289-007-R4-J1-PDC cell line growth inhibition [GQUAD]; conditions: second compound 0.1 µM; first compound 0.1 µM; active compounds read low

| Compound | viability, T/C |
| --- | --- |
| COc1cc(C2c3cc4c(cc3C(OC3OC5COC(C)OC5C(O)C3O)C3COC(=O)C23)OCO4)cc(OC)c1O (stereo not drawn) + Cc1[nH]c2ccc(F)cc2c1-c1nc2c3cccnc3c3ncccc3c2[nH]1 | 105% |
| CC1COCCN1c1cc(-c2ccnn2C)c2ccnc(-c3ccn[nH]3)c2n1 (stereo not drawn) + Cc1[nH]c2ccc(F)cc2c1-c1nc2c3cccnc3c3ncccc3c2[nH]1 | 73.2% |
| CC(C)n1c(=O)n(C)c2cnc3cc(F)c(-c4ccc(OCCCN5CCCCC5)nc4)cc3c21 + Cc1[nH]c2ccc(F)cc2c1-c1nc2c3cccnc3c3ncccc3c2[nH]1 | 101% |

* * *

Each entry below lists one item and its recorded viability, T/C value.
system: 966289-007-R4-J1-PDC complex spheroid viability; assay: Anticancer human tumor 966289-007-R4-J1-PDC cell line growth inhibition [GQUAD]; details: second compound 10 µM; first compound 3.16 µM; active compounds read low;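 also: spheroids exposed to the agents for seven days before readout; percent viability relative to DMSO vehicle control wells taken as 100%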
Reported Endpoint: viability, T/C (%)

| Molecule | Numeric Value |
| --- | --- |
| O=C(NO)c1cnc(N2CCN(S(=O)(=O)c3ccc4ccccc4c3)CC2)nc1 + Cc1[nH]c2ccc(F)cc2c1-c1nc2c3cccnc3c3ncccc3c2[nH]1 | 2.05 |
| C#Cc1c(F)ccc2cc(O)cc(-c3ncc4c(N5CC6CCC(C5)N6)nc(OCC56CCCN5CC(F)C6)nc4c3F)c12 (stereo unspecified) + CN(C)c1ccc(Nc2c3ccc(NC(=O)CCN4CCCC4)cc3nc3cc(NC(=O)CCN4CCCC4)ccc23)cc1 | 16.1 |
| COc1ncnc(C2CC2)c1-c1ncc2cnn(Cc3ccc(-c4nc(C(F)(F)F)cn4C(C)C)cc3)c2n1 + CN(C)c1ccc(Nc2c3ccc(NC(=O)CCN4CCCC4)cc3nc3cc(NC(=O)CCN4CCCC4)ccc23)cc1 | 91.7 |
| Nc1ccn(C2OC(CO)C(O)C2(F)F)c(=O)n1 (stereo unspecified) + Cc1cnc(CNC(=O)c2c(=O)c3ccc(N4CCCN(C)CC4)nc3n3c2sc2ccccc23)cn1 | 0.92 |
| CC1COCCN1c1cc(C2(S(C)(=N)=O)CC2)nc(-c2ccnc3[nH]ccc23)n1 (stereo unspecified) + Cc1[nH]c2ccc(F)cc2c1-c1nc2c3cccnc3c3ncccc3c2[nH]1 | 9.9 |
| COc1ncnc(C2CC2)c1-c1ncc2cnn(Cc3ccc(-c4nc(C(F)(F)F)cn4C(C)C)cc3)c2n1 + Cc1cnc(CNC(=O)c2c(=O)c3ccc(N4CCCN(C)CC4)nc3n3c2sc2ccccc23)cn1 | 0.4 |
| COc1ncnc(C2CC2)c1-c1ncc2cnn(Cc3ccc(-c4nc(C(F)(F)F)cn4C(C)C)cc3)c2n1 + Cc1[nH]c2ccc(F)cc2c1-c1nc2c3cccnc3c3ncccc3c2[nH]1 | 111 |
| CC1COCCN1c1cc(C2(O)CC3CCC(C2)O3)c2cnn(-c3ccn[nH]3)c2n1 (stereo unspecified) + Cc1cnc(CNC(=O)c2c(=O)c3ccc(N4CCCN(C)CC4)nc3n3c2sc2ccccc23)cn1 | 0.15 |
| O=c1[nH]cc(F)c(=O)[nH]1 + CN(C)c1ccc(Nc2c3ccc(NC(=O)CCN4CCCC4)cc3nc3cc(NC(=O)CCN4CCCC4)ccc23)cc1 | 3.52 |
| O=C(NO)c1cnc(N2CCN(S(=O)(=O)c3ccc4ccccc4c3)CC2)nc1 + Cc1cnc(CNC(=O)c2c(=O)c3ccc(N4CCCN(C)CC4)nc3n3c2sc2ccccc23)cn1 | 0.53 |
| CCCS(=O)(=O)Nc1ccc(F)c(C(=O)c2c[nH]c3ncc(-c4ccc(Cl)cc4)cc23)c1F + Cc1[nH]c2ccc(F)cc2c1-c1nc2c3cccnc3c3ncccc3c2[nH]1 | 112 |

* * *

test system: 966289-007-R4-J1-PDC complex spheroid viability; experiment: Anticancer human tumor 966289-007-R4-J1-PDC cell line growth inhibition [GQUAD]; settings: second compound 3.16 µM; first compound 0.316 µM; active compounds read low;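 also: spheroids exposed to the agents for seven days before readout; percent viability relative to DMSO vehicle control wells taken as 100%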

| Compound | System Name | Unit Of Measure | viability, T/C |
| --- | --- | --- | --- |
| CC1COCCN1c1cc(C2(O)CC3CCC(C2)O3)c2cnn(-c3ccn[nH]3)c2n1 (stereo not given) + Cc1[nH]c2ccc(F)cc2c1-c1nc2c3cccnc3c3ncccc3c2[nH]1 | 966289-007-R4-J1-PDC complex spheroid viability | % | 11.7 |
| CC1COCCN1c1cc(C2(S(C)(=N)=O)CC2)nc(-c2ccnc3[nH]ccc23)n1 (stereo not given) + Cc1cnc(CNC(=O)c2c(=O)c3ccc(N4CCCN(C)CC4)nc3n3c2sc2ccccc23)cn1 | 966289-007-R4-J1-PDC complex spheroid viability | % | 6.62 |
| O=C(NO)c1cnc(N2CCN(S(=O)(=O)c3ccc4ccccc4c3)CC2)nc1 + Cc1cnc(CNC(=O)c2c(=O)c3ccc(N4CCCN(C)CC4)nc3n3c2sc2ccccc23)cn1 | 966289-007-R4-J1-PDC complex spheroid viability | % | 0.08 |
| CC1COCCN1c1cc(-c2ccnn2C)c2ccnc(-c3ccn[nH]3)c2n1 (stereo not given) + CN(C)c1ccc(Nc2c3ccc(NC(=O)CCN4CCCC4)cc3nc3cc(NC(=O)CCN4CCCC4)ccc23)cc1 | 966289-007-R4-J1-PDC complex spheroid viability | % | 28.2 |
| CC1COCCN1c1cc(C2(O)CC3CCC(C2)O3)c2cnn(-c3ccn[nH]3)c2n1 (stereo not given) + CN(C)c1ccc(Nc2c3ccc(NC(=O)CCN4CCCC4)cc3nc3cc(NC(=O)CCN4CCCC4)ccc23)cc1 | 966289-007-R4-J1-PDC complex spheroid viability | % | 19.1 |

* * *

tested on: 966289-007-R4-J1-PDC complex spheroid viability; test: Anticancer human tumor 966289-007-R4-J1-PDC cell line growth inhibition [GQUAD]; conditions: second compound 10 µM; first compound 0.316 µM; active compounds read low;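 also: spheroids exposed to the agents for seven days before readout; percent viability relative to DMSO vehicle control wells taken as 100%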

| Molecule | Unit Of Measure | viability, T/C |
| --- | --- | --- |
| O=C(NO)c1cnc(N2CCN(S(=O)(=O)c3ccc4ccccc4c3)CC2)nc1 + Cc1cnc(CNC(=O)c2c(=O)c3ccc(N4CCCN(C)CC4)nc3n3c2sc2ccccc23)cn1 | % | 0.1 |
| COc1ncnc(C2CC2)c1-c1ncc2cnn(Cc3ccc(-c4nc(C(F)(F)F)cn4C(C)C)cc3)c2n1 + Cc1cnc(CNC(=O)c2c(=O)c3ccc(N4CCCN(C)CC4)nc3n3c2sc2ccccc23)cn1 | % | 0.17 |
| CCc1c2c(nc3ccc(O)cc13)-c1cc3c(c(=O)n1C2)COC(=O)[C@]3(O)CC + CN(C)c1ccc(Nc2c3ccc(NC(=O)CCN4CCCC4)cc3nc3cc(NC(=O)CCN4CCCC4)ccc23)cc1 | % | 0.22 |
| COc1ccc([C@@H](O)c2cc(-c3ncnc4cc(N5CCOCC5)ccc34)c(F)cc2Cl)nn1 + Cc1cnc(CNC(=O)c2c(=O)c3ccc(N4CCCN(C)CC4)nc3n3c2sc2ccccc23)cn1 | % | 0.3 |
| O=C(c1cc(Cc2n[nH]c(=O)c3ccccc23)ccc1F)N1CCN(C(=O)C2CC2)CC1 + CN(C)c1ccc(Nc2c3ccc(NC(=O)CCN4CCCC4)cc3nc3cc(NC(=O)CCN4CCCC4)ccc23)cc1 | % | 104 |

* * *

Test system: 966289-007-R4-J1-PDC complex spheroid viability
Assay: Anticancer human tumor 966289-007-R4-J1-PDC cell line growth inhibition [GQUAD]; active = viability on the fitted dose curve at most 10% of control; inactive = the rest;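 also: spheroids exposed to the agents for seven days before readout; percent viability relative to DMSO vehicle control wells taken as 100%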
Conditions: second compound 3.16 µM; first compound 0.1 µM
Text: DNA G-quadruplex Stabilizer Agents in Combinations in Complex Spheroids A high-throughput screen of multi-cell type tumor spheroids was designed to identify active combinations of DNA G-quadruplex stabilizer agents and targeted small molecules. […] Compounds. […] If the clinical Cmax for an agent had not been determined, the highest concentration tested was 10 microM. […]
Labels: active, inactive

| Compound | Class |
| --- | --- |
| O=c1[nH]cc(F)c(=O)[nH]1 + Cc1cnc(CNC(=O)c2c(=O)c3ccc(N4CCCN(C)CC4)nc3n3c2sc2ccccc23)cn1 | active |
| COc1ccc([C@@H](O)c2cc(-c3ncnc4cc(N5CCOCC5)ccc34)c(F)cc2Cl)nn1 + CN(C)c1ccc(Nc2c3ccc(NC(=O)CCN4CCCC4)cc3nc3cc(NC(=O)CCN4CCCC4)ccc23)cc1 | inactive |
| O=C(NO)c1cnc(N2CCN(S(=O)(=O)c3ccc4ccccc4c3)CC2)nc1 + Cc1cnc(CNC(=O)c2c(=O)c3ccc(N4CCCN(C)CC4)nc3n3c2sc2ccccc23)cn1 | active |
| COc1ncnc(C2CC2)c1-c1ncc2cnn(Cc3ccc(-c4nc(C(F)(F)F)cn4C(C)C)cc3)c2n1 + Cc1[nH]c2ccc(F)cc2c1-c1nc2c3cccnc3c3ncccc3c2[nH]1 | inactive |
| CC1COCCN1c1cc(C2(O)CC3CCC(C2)O3)c2cnn(-c3ccn[nH]3)c2n1 (configuration not stated) + Cc1cnc(CNC(=O)c2c(=O)c3ccc(N4CCCN(C)CC4)nc3n3c2sc2ccccc23)cn1 | active |
| O=C(NO)c1cnc(N2CCN(S(=O)(=O)c3ccc4ccccc4c3)CC2)nc1 + Cc1[nH]c2ccc(F)cc2c1-c1nc2c3cccnc3c3ncccc3c2[nH]1 | inactive |
| CC1COCCN1c1cc(-c2ccnn2C)c2ccnc(-c3ccn[nH]3)c2n1 (configuration not stated) + Cc1cnc(CNC(=O)c2c(=O)c3ccc(N4CCCN(C)CC4)nc3n3c2sc2ccccc23)cn1 | active |
| CCCS(=O)(=O)Nc1ccc(F)c(C(=O)c2c[nH]c3ncc(-c4ccc(Cl)cc4)cc23)c1F + Cc1[nH]c2ccc(F)cc2c1-c1nc2c3cccnc3c3ncccc3c2[nH]1 | inactive |
| C=CCn1c(=O)c2cnc(Nc3ccc(N4CCN(C)CC4)cc3)nc2n1-c1cccc(C(C)(C)O)n1 + Cc1cnc(CNC(=O)c2c(=O)c3ccc(N4CCCN(C)CC4)nc3n3c2sc2ccccc23)cn1 | active |
| CC1COCCN1c1cc(C2(S(C)(=N)=O)CC2)nc(-c2ccnc3[nH]ccc23)n1 (configuration not stated) + Cc1[nH]c2ccc(F)cc2c1-c1nc2c3cccnc3c3ncccc3c2[nH]1 | inactive |
| C=CC(=O)N1CCN(c2nc(=O)n(-c3c(C)ccnc3C(C)C)c3nc(-c4c(O)cccc4F)c(F)cc23)C(C)C1 (configuration not stated) + Cc1[nH]c2ccc(F)cc2c1-c1nc2c3cccnc3c3ncccc3c2[nH]1 | inactive |
| O=C(c1cc(Cc2n[nH]c(=O)c3ccccc23)ccc1F)N1CCN(C(=O)C2CC2)CC1 + CN(C)c1ccc(Nc2c3ccc(NC(=O)CCN4CCCC4)cc3nc3cc(NC(=O)CCN4CCCC4)ccc23)cc1 | inactive |
